Data provenance is paper PMC10397247.

The reader will find reported interaction score values listed item by item below.
assayed.target: T1, 4H953-bA
T1 chain: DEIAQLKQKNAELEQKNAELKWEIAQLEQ
procedure.text: two-hybrid library CCNG1;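 also: natural log of median RNA to DNA barcode read ratio; higher means stronger binding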
# answer = number (no unit)

{"columns": ["binder", "value.kind", "measurement"],
 "data": [
  ["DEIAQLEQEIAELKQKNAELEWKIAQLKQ [4H118-bA]", "interaction score", -0.791],
  ["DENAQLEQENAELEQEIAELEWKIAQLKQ [4H1158-bA]", "interaction score", -0.12],
  ["DEIAQLKQENAELKQEIAELKWKIAQLEQ [4H717-bA]", "interaction score", -0.433],
  ["DENAQLKQKIAELEQKIAELEWKNAQLEQ [4H1831-bA]", "interaction score", -0.824],
  ["DKNAQLEQKIAELEQENAELKWEIAQLKQ [4H3354-bA]", "interaction score", -0.675],
  ["DKIAQLKQENAELEQEIAELKWEIAQLEQ [4H2697-bA]", "interaction score", -1.44]
]}

Prompt line: What measured interaction score goes with DKIAQLKQKNAELKQEIAELEWEIAQLKQ [4H3010-bA] ?
Response line: 0.368
